- ASSAYED SYSTEM: mycobacterial isocitrate lyase (ICL1, Rv0467) (Mycobacterium tuberculosis)
- Construct: His tag (from pET-28b(+)); made in house; host or cells: E. coli BL21(DE3), pET-28b(+) plasmid
- Sequence (P9WKK7 whole entry): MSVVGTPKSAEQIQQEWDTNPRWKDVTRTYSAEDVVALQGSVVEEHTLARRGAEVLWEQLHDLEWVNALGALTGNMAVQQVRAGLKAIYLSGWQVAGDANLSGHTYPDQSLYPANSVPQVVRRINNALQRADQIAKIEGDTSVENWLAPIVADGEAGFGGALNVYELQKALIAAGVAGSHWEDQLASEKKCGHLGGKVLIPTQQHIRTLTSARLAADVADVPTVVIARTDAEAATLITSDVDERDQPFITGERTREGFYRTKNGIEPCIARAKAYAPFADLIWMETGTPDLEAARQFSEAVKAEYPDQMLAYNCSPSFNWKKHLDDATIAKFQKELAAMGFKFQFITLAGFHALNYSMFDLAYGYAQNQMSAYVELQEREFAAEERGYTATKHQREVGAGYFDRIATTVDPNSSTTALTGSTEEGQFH
- EXPERIMENTAL DETAILS: Isocitrate lyase inhibition assay (ICL1)
- Type: biochemical, Mycobacterium tuberculosis H37Rv
- STATED CONDITIONS: 10 μmol/L; read-out: % ICL inhibition at 10 μmol/L (± standard deviation)
OUTCOME MEASURE: inhibition at 10 µM (%)

>>> print(df.to_string())
                                   compound      outcome_measure  inequality_sign  val
0  O=C(Oc1cc(Cl)ccc1C(=O)Nc1cccc(F)c1)c1ccc(C(F)(F)F)cc1 [1l]  inhibition at 10 µM                ≥   20
1  O=C(Oc1ccc(Cl)cc1C(=O)Nc1ccc(F)cc1)c1ccc(C(F)(F)F)cc1 [1m]  inhibition at 10 µM                ≥   20
2  O=C(Oc1ccc(Br)cc1C(=O)Nc1ccc(C(F)(F)F)cc1)c1ccc(C(F)(F)F)cc1 [1r]  inhibition at 10 µM                ≥   20
3  O=C(Oc1ccc(Cl)cc1C(=O)Nc1cccc(Br)c1)c1ccc(C(F)(F)F)cc1 [1g]  inhibition at 10 µM                ≥   20
4  O=C(Oc1ccc(Cl)cc1C(=O)Nc1cccc(F)c1)c1ccc(C(F)(F)F)cc1 [1k]  inhibition at 10 µM                ≥   20
5  O=C(Oc1cc(Cl)ccc1C(=O)Nc1cccc(Br)c1)c1ccc(C(F)(F)F)cc1 [1h]  inhibition at 10 µM                ≥   20
6  O=C(Oc1cc(Cl)ccc1C(=O)Nc1ccc(Cl)cc1)c1ccc(C(F)(F)F)cc1 [1d]  inhibition at 10 µM                =   12
7  O=C(Oc1cc(Cl)ccc1C(=O)Nc1ccc(Br)cc1)c1ccc(C(F)(F)F)cc1 [1j]  inhibition at 10 µM                =   14
8  O=C(Oc1cc(Cl)ccc1C(=O)Nc1ccc(F)cc1)c1ccc(C(F)(F)F)cc1 [1n]  inhibition at 10 µM                =   17
9  O=C(Oc1ccc(Cl)cc1C(=O)Nc1ccc(Cl)cc1)c1ccc(C(F)(F)F)cc1 [1c]  inhibition at 10 µM                =   12

----------
Parameter MIC: see the listing below.
- Test system: Mtb. 9449/2006
- EXPERIMENTAL DETAILS: microbe, parasite or virus in culture
- Format: cell-based
- STATED CONDITIONS: Mycobacterium tuberculosis, 336 h, read-out: MIC Mtb. 9449/2006
OUTCOME MEASURE: MIC (µM)

>>> print(df.to_string())
                                 mol_smiles  val
0  O=C(Oc1ccc(Cl)cc1C(=O)Nc1cccc(Br)c1)c1ccc(C(F)(F)F)cc1    1
1  O=C(Oc1ccc(Cl)cc1C(=O)Nc1ccc(Cl)c(Cl)c1)c1ccc(C(F)(F)F)cc1    2
2  O=C(Oc1cc(Cl)ccc1C(=O)Nc1ccc(Cl)cc1)c1ccc(C(F)(F)F)cc1    4
3  O=C(Oc1ccc(Cl)cc1C(=O)Nc1ccc(C(F)(F)F)cc1)c1ccc(C(F)(F)F)cc1    1
4  O=C(Oc1ccc(Cl)cc1C(=O)Nc1ccc(Cl)cc1)c1ccc(C(F)(F)F)cc1    2
5  O=C(Oc1ccc(Br)cc1C(=O)Nc1ccc(C(F)(F)F)cc1)c1ccc(C(F)(F)F)cc1    1
6  O=C(Oc1cc(Cl)ccc1C(=O)Nc1cccc(Cl)c1)c1ccc(C(F)(F)F)cc1    4
7  O=C(Oc1ccc(Cl)cc1C(=O)Nc1cccc(Cl)c1)c1ccc(C(F)(F)F)cc1    4
